test system: SF539 human gliosarcoma cells; assay: Cell kill screening, CellTiter Glo viability assay, SF539; format: cell-based; details: SF-539, 50 μM, 24 hours treatment, 0.5% serum and 0.05% DMSO, relative to untreated control, read-out: % avg live cells @ 50 μM (% Viable Cells Remaining)
readout-kind: viability at 50 µM (%)
Lab book: enter the figure in %, no units written.

Worked examples follow.
molecule	viability at 50 µM [%]
O=C(CCCCC(CCSCc1ccccc1)SCc1ccccc1)OCc1ccccc1 (centres unmarked)	97
CCN(CC)CCNC(=O)CCCCC(CCSCc1ccccc1)SCc1ccccc1 (centres unmarked)	3.1
O=C(O)CCCCCCC(CCSCc1ccccc1)SCc1ccccc1 (centres unmarked)	5
O=C(O)/C=C/CCCCC(CCSCc1ccccc1)SCc1ccccc1 (centres unmarked)	9.9
O=CCCCCC(CCSCc1ccccc1)SCc1ccccc1 (centres unmarked)	29.4

Form field viability at 50 µM, entry O=C(CCCCC(CCSCc1ccccc1)SCc1ccccc1)NCCN1CCOCC1 (centres unmarked) : 0

Form field viability at 50 µM, entry O=C(CCCCC(CCSCc1ccccc1)SCc1ccccc1)NCCS(=O)(=O)O (centres unmarked) : 104

Form field viability at 50 µM, entry CCN(CC)C(=O)CCCCC(CCSCc1ccccc1)SCc1ccccc1 (centres unmarked) : 58

Form field viability at 50 µM, entry NC(=O)CCCCC(CCSCc1ccccc1)SCc1ccccc1 (centres unmarked) : 1

Form field viability at 50 µM, entry O=C(CCCCC(CCSCc1ccccc1)SCc1ccccc1)N1CCOCC1 (centres unmarked) : 38.2

Form field viability at 50 µM, entry O=C(O)CCCCC(CCNC(=O)OCc1ccccc1)NC(=O)OCc1ccccc1 (centres unmarked) : 97.3
